Biological target: T1, human DKK1 (human, UniProt O94907 32-266)
T1 construct: also called huDKK1; hDKK1
T1 sequence: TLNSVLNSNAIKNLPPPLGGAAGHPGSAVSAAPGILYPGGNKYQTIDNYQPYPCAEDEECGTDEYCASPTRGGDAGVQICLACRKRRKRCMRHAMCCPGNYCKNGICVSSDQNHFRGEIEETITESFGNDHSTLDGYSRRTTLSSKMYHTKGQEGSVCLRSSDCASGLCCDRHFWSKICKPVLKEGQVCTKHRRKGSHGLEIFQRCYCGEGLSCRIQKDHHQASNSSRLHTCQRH
Assay: BiaCore 2000
reportedEndpoint: koff

Ask: Find the recorded koff belonging to 5.25.1 (antibody, V domains shown, Fully human hybridoma IgG, kappa (Vk)) VH: QVQLVQSGAEVKKPGASVKVSCKASGYTFTSYDINWVRQATGQGLEWMGWMDPNSGNTGYAQKFQGRVTMTRNTSISTAFMELSSLRSEDTAVYYCARTDYFYFGMDVWGQGTTVTVSS VL: DIQMTQSPSSLSASVGDRVTITCQASQDISKDLNWYQQKPGKAPRLLIYDASNLETGVPSRFSGSGSGTDFTFTISSLQPEDIATFYCQQYDHLPIAFGQGTRLEIK and report it.
Result: < 2e-05 s⁻¹
